molecular target: EGFR (Homo sapiens); test: ADP-Glo kinase assay, EGFR; assay type: biochemical; set-up: purchased BPS Bioscience (assay run externally by the vendor); conditions: Log[nM] 1.5; Set3
Sequence (P00533 25-1210): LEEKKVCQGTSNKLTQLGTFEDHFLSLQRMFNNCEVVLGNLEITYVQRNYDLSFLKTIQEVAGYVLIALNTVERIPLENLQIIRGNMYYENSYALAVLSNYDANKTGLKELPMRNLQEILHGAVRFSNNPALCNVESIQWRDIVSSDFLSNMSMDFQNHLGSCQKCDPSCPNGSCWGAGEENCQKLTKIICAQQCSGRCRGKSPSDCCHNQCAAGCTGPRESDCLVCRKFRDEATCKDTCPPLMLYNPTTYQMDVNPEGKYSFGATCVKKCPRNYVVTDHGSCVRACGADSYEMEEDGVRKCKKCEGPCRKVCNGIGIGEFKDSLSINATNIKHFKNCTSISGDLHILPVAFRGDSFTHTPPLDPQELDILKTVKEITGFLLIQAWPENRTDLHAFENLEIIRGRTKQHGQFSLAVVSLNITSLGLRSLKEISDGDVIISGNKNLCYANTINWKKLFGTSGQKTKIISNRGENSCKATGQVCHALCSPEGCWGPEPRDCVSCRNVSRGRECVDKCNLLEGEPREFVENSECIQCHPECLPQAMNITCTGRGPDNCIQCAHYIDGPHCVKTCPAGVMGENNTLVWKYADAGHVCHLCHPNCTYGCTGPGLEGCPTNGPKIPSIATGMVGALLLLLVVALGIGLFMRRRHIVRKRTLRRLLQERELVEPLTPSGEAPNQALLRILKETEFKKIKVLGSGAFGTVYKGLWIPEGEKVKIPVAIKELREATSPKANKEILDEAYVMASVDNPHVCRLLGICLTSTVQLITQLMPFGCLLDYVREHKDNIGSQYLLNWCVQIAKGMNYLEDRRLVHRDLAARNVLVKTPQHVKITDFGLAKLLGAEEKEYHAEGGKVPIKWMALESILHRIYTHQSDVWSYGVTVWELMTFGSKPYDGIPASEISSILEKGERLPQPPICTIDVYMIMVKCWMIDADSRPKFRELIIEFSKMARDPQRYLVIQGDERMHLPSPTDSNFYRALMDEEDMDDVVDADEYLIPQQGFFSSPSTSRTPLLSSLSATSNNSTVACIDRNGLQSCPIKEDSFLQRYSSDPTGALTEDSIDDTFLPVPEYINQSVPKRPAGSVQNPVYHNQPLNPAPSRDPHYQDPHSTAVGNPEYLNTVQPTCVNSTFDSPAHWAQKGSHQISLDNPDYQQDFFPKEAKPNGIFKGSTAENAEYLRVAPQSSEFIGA
assay endpoint: EGFR % Activity Set3 (%)

Some solved cases for reference:
Look at this molecule and give its reported EGFR % Activity Set3. Brc1cccc(Nc2ncnc3[nH]ccc23)c1 [Compound 2] 11

Requested read-out: EGFR % Activity Set3. Entry: Clc1ccc(Nc2ncnc3[nH]ccc23)cc1Cl [Compound 5] 16

What does the record list as EGFR % Activity Set3 for Fc1cc(Nc2ncnc3[nH]ccc23)ccc1Cl [Compound 3] ? 16

Looking for the measured EGFR % Activity Set3 of Nc1nc(Nc2cccc(Br)c2)c2cc[nH]c2n1 [Compound 8] , can you help? 84

Recorded EGFR % Activity Set3 for c1ccc(Nc2ncnc3[nH]ccc23)cc1 [Compound 1] , please? 94

(1) Brc1ccc(Nc2ncnc3[nH]ccc23)cc1 [Compound 10]
(2) FC(F)(F)c1cccc(Nc2ncnc3[nH]ccc23)c1 [Compound 13]
(3) Clc1ccc(Nc2ncnc3[nH]ccc23)cc1Br [Compound 7]
Which order do these items take when sorted by rising EGFR % Activity Set3? List them. Enter labels, ranked according to the request. 3, 2, 1

(a) Clc1ccccc1Nc1ncnc2[nH]ccc12 [Compound 14]
(b) c1ccc(Cc2ccc(Nc3ncnc4[nH]ccc34)cc2)cc1 [Compound 18]
Please state the entry with greater EGFR % Activity Set3 among a and b . Refer to your chosen item by its label in the answer. a
(a: 93%, b: 65%)

Data provenance is paper PMC6009956.
